Origin of the recorded values: patent US11827701B2

Entries and their kd
TESTED_SYSTEM: T1, bacterially produced human IL-6 (Homo sapiens, UniProt P05231)
T1 construct: His
T1 sequence (P05231 30-212): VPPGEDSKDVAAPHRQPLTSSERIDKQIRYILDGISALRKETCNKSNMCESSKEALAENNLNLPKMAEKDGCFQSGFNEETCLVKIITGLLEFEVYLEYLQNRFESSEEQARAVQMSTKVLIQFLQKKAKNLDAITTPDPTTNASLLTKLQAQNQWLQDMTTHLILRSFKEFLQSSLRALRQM
MEASUREMENT_PROTOCOL: Surface plasmon resonance (Biacore), bacterially produced human IL-6 coated on CM5 chip
Format: binding
CONDITION_SET: bact; periplasmic fractions, 28A6 chain-shuffled
Please state the figure in s⁻¹; there is no need to write the unit.

Examples with their reported kd follow.
[
  {
    "MOLECULE": "55E10g1: 28A6 chain-shuffled Fab, periplasmic fraction (antibody, V domains shown) VH: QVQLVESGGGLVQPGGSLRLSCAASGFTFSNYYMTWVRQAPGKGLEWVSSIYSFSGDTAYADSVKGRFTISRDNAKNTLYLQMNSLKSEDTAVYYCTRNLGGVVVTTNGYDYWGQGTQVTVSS VL: DIQMTQSPSSLPTSLGDSVTITCQASQSISDELSWYQQKPGQTPKLLIYGASKLQTGVPSRFSGSGSGTSFTLTISGLEAEDLATYYCLQGYSWPFMFGQGTKVELK",
    "OBSERVED_RESULT": "6.09e-05"
  },
  {
    "MOLECULE": "48H1g2, R4: 28A6 chain-shuffled Fab, periplasmic fraction (antibody, V domains shown) VH: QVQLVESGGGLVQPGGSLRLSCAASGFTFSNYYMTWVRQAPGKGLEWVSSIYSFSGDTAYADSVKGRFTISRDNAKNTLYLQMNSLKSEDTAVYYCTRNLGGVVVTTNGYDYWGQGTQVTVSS VL: DVVMTQSPSSLPTSLGDSVTITCQASQSISDELSWYQQKPGQTPKLLIYGASKLQTGVPSRFSGSGSGTSFTLTISGLEAEDLATYYCLQGYSWPFMFGQGTKVELK",
    "OBSERVED_RESULT": "7.04e-05"
  }
]

Could you now look at the following molecule, please?
// returns reported kd for input 55A11d: 28A6 chain-shuffled Fab, periplasmic fraction (antibody, V domains shown) VH: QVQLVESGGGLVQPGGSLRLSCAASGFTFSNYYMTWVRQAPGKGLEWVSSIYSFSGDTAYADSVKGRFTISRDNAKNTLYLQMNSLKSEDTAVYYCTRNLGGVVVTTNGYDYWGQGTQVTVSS VL: DIQMTQSPSSLPTSLGDSVTITCQASQSISDELSWYQQKPGQTPKLLIYGASRLQTGVPSRFSGRGSGTSFTLTISGLEAEDLATYYCLQGYSWPFMFGQGTKVELK
6.76e-05
